# subject_of_test: NCL RBD1,2 (UniProt P19338 307-466)
# Sequence (P19338 307-466): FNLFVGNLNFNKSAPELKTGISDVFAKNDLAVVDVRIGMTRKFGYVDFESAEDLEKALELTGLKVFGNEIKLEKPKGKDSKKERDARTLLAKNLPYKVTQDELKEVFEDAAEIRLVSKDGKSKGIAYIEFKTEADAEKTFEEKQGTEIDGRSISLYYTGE
# method_summary: fluorescence titration; Hill n 0.33; K100: 100 mM KCl, 10 mM lithium cacodylate pH 7.2; 100 nM Cy5-oligonucleotide pre-annealed, 5 min equilibration per protein addition; temperature not stated
# experimental_context: label: 5'-Cy5; G-quadruplex
endpoint: Kd (pM)

{"columns": ["binder", "readout_units", "reported_result"],
 "data": [
  ["GGTGGTGGTGGTTGGTGGTGGTGG (structured_DNA) [Cy5-AT14-T2]", "pM", 10]
]}
